Source listed as patent US20060110401A1.

Assign IC50 to each entry below.
Tested on: HLA-DRB4 (DRB4*0101) (human)
Method notes: competition binding
Recorded conditions: chains peptide; modification not given
Return type: number; implicit unit nM.

stdin: Recall and state the measured IC50 for KNQVEGEVQIVSTAAQTFLAT [10N 1052-1072] .
stdout: 400

stdin: Recall and state the measured IC50 for KPGIYRFVAPGERPSGMFD [27N 1495-1513] .
stdout: 138

stdin: Recall and state the measured IC50 for DPNIRTGVRTITTGSPITYSTYGKFLADGG [19N 1275-1304] .
stdout: 3500

stdin: Recall and state the measured IC50 for PQDVKFPGGGQIVGGVYLLPRRGPRLGVR [1C 19-47] .
stdout: 6000

stdin: Recall and state the measured IC50 for GREILLGPADGMVSKGWRLLAPITAYAQQTR [8N 1007-1037] .
stdout: 60
